System: MCF7
Assay: Cytotoxicity against Homo sapiens (human) MCF7 cells after 72 hr by XTT assay
Type: functional, cell-based
Settings: MCF7, 72 h
For each entry below, report its IC50 value.
Give just the number in nM; leave the unit off.

// query Look up IC50 of `Cc1ccccc1NC(=O)CN1C(=O)C(=O)c2cc(Br)cc(Br)c21` and report it.
// result 3850

// query Look up IC50 of `O=C(CN1C(=O)C(=O)c2cc(Br)cc(Br)c21)Nc1ccccc1` and report it.
// result 3910

// query Look up IC50 of `CC[C@]1(O)C[C@@H]2CN(CCc3c([nH]c4ccccc34)[C@@](C(=O)OC)(c3cc4c(cc3OC)N(C)[C@H]3[C@@](O)(C(=O)OC)[C@H](OC(C)=O)[C@]5(CC)C=CCN6CC[C@]43[C@@H]65)C2)C1` and report it.
// result 1900

// query Look up IC50 of `O=C(CN1C(=O)C(=O)c2cc(Br)cc(Br)c21)Nc1ccc([N+](=O)[O-])cc1` and report it.
// result 1960

// query Look up IC50 of `Cc1ccc(NC(=O)CN2C(=O)C(=O)c3cc(Br)cc(Br)c32)cc1` and report it.
// result 2430

// query Look up IC50 of `O=C(CN1C(=O)C(=O)c2cc(Br)cc(Br)c21)Nc1ccccc1[N+](=O)[O-]` and report it.
// result 2040

Entry source: ChEMBL document CHEMBL3046046
